# Test system: M. mycetomatis strain mm55
# conditions.used: m. mycetomatis hyphae, 96 h, 2 µM
property: % viability (%)

[[record]]
molecule = "CC(C)(O)CNc1nc(Nc2ccnc(C(F)(F)F)c2)nc(-c2cccc(C(F)(F)F)n2)n1 [ONC0001138, enasidenib]"
assay_target = "M. mycetomatis strain mm55"
property = "% viability"
assay_value = 67.01

[[record]]
molecule = "CC(C)CN(C[C@@H](O)[C@H](Cc1ccccc1)NC(=O)O[C@H]1CCOC1)S(=O)(=O)c1ccc(N)cc1 [ONC0003406, amprenavir]"
assay_target = "M. mycetomatis strain mm55"
property = "% viability"
assay_value = 51.58

[[record]]
molecule = "COc1cc2c(c(OC)c1OC)-c1ccc(OC)c(=O)cc1[C@@H](NC(C)=O)CC2 [ONC0000317, colchicine]"
assay_target = "M. mycetomatis strain mm55"
property = "% viability"
assay_value = 73.45

[[record]]
molecule = "CC[C@H]1OC(=O)[C@H](C)[C@@H](O[C@H]2C[C@@](C)(OC)[C@@H](O)[C@H](C)O2)[C@H](C)[C@@H](O[C@@H]2O[C@H](C)C[C@H](N(C)C)[C@H]2O)[C@](C)(O)C[C@@H](C)[C@@H]2N[C@@H](COCCOC)O[C@H]([C@H]2C)[C@]1(C)O [ONC0005551, dirithromycin]"
assay_target = "M. mycetomatis strain mm55"
property = "% viability"
assay_value = 98.9

[[record]]
molecule = "CCC1/C=C(\\C)CC(C)CC(OC)C2OC(O)(C(=O)C(=O)N3CCCCC3C(=O)OC(/C(C)=C/C3CCC(O)C(OC)C3)C(C)C(O)CC1=O)C(C)CC2OC (centres unmarked) [ONC0004338, ascomycin fk520]"
assay_target = "M. mycetomatis strain mm55"
property = "% viability"
assay_value = 150.4


====

# Test system: M. mycetomatis strain mm55
# conditions.used: m. mycetomatis hyphae, 96 h, 2 µM
Please note: % viability exactly at 90% is rule not met. Only values below 90% get rule met.

[[record]]
molecule = "O=C(O)[C@]1(Cc2cccc(Nc3nccs3)n2)CC[C@@H](Oc2cccc(Cl)c2F)CC1"
assigned_class = "rule not met"

[[record]]
molecule = "c1ccc2oc(C3=NCCN3)cc2c1"
assigned_class = "rule met"

[[record]]
molecule = "COc1cc(NC(=O)Nc2cccc(CNC(=O)O[C@H]3CCOC3)c2)ccc1-c1cnco1"
assigned_class = "rule met"

[[record]]
molecule = "COC(=O)[C@@H]1C[C@H](OC(C)=O)C(=O)[C@H]2[C@@]1(C)CC[C@H]1C(=O)O[C@H](c3ccoc3)C[C@]21C"
assigned_class = "rule met"

[[record]]
molecule = "Cc1sc2c(c1C)C(c1ccc(Cl)cc1)=N[C@@H](CC(=O)Nc1ccc(O)cc1)c1nnc(C)n1-2"
assigned_class = "rule not met"


====

# System: M. mycetomatis strain mm55
# conditions.used: m. mycetomatis hyphae, 96 h, 2 µM
Each entry below carries its reported % viability.
property: % viability (%)

[[record]]
molecule = "CC(C)(C)c1ccc(-c2nc3ccccc3[nH]2)cc1 [ONC0004834, zln005]"
assay_target = "M. mycetomatis strain mm55"
units_label = "%"
assay_value = 87.04

[[record]]
molecule = "CNCc1ccc(-c2cc(-c3nc(-c4ccc(S(=O)(=O)C(C)C)cc4)cnc3N)on2)cc1 [ONC0005048, ve822]"
assay_target = "M. mycetomatis strain mm55"
units_label = "%"
assay_value = 77.72

[[record]]
molecule = "CCCC(C)C1(CC)C(=O)NC(=S)NC1=O (stereo not shown) [ONC0001983, thiopental]"
assay_target = "M. mycetomatis strain mm55"
units_label = "%"
assay_value = 75.11

[[record]]
molecule = "C[N+]12CCC(CC1)C(OC(=O)C(O)(c1ccccc1)c1ccccc1)C2 (stereo not shown) [ONC0000315, clidinium bromide]"
assay_target = "M. mycetomatis strain mm55"
units_label = "%"
assay_value = 88.97


====

Each entry below carries its reported % viability.
# Tested on: M. mycetomatis strain mm55
# conditions.used: m. mycetomatis hyphae, 96 h, 2 µM
property: % viability (%)

[[record]]
compound = "COc1ccc2c(O[C@@H]3C[C@H]4C(=O)N[C@]5(C(=O)NS(=O)(=O)C6CC6)C[C@H]5/C=C\\CCCCN(C)C(=O)[C@@H]4C3)cc(-c3nc(C(C)C)cs3)nc2c1C [ONC0000991, simeprevir]"
assay_value = 85.85

[[record]]
compound = "Cc1ccc(NC(=O)C2(c3ccc4c(c3)OC(F)(F)O4)CC2)nc1-c1cccc(C(=O)O)c1 [ONC0004867, vx809 lumacaftor]"
assay_value = 108.5

[[record]]
compound = "CC(C)(C)C#Cc1cc(N(C(=O)[C@H]2CC[C@H](C)CC2)[C@H]2CC[C@@H](O)CC2)c(C(=O)O)s1 [ONC0004853, lomibuvir vx222 vch222]"
assay_value = 92.92


====

# Test system: M. mycetomatis strain I1
# test.summary: IC50 and MIC determination, CellTiter-Glo, strain I1
# Assay type: cell-based, Madurella mycetomatis
# conditions.used: Madurella mycetomatis, I1
Structures can show the parent of a compound that is named as a salt.
property: IC50 (µM)

[[record]]
compound = "CCCCC(CC)CNC(=N)NC(=N)NCCCCCCNC(=N)NC(=N)NCC(CC)CCCC (centres unmarked) [Alexidine dihydrochloride]"
operator_symbol = "="
assay_value = 0.8

[[record]]
compound = "C=C1CCN([C@H](C)[C@](O)(Cn2cncn2)c2ccc(F)cc2F)CC1"
operator_symbol = "="
assay_value = 0.05

[[record]]
compound = "CC(C)(C)c1ccc(S(=O)(=O)/C=C/C#N)cc1"
operator_symbol = "="
assay_value = 0.72

[[record]]
compound = "C/C(=N\\NC(=S)N1CCC1)c1ccccn1"
operator_symbol = "="
assay_value = 1.04

[[record]]
compound = "Oc1c(Br)cc(Br)c2cccnc12"
operator_symbol = "="
assay_value = 1.29

[[record]]
compound = "CC(=O)N1CCN(c2ccc(OCC3COC(Cn4ccnc4)(c4ccc(Cl)cc4Cl)O3)cc2)CC1 (centres unmarked)"
operator_symbol = "="
assay_value = 0.05

[[record]]
compound = "N#C/C(=C1/SCC(c2ccccc2Cl)S1)n1ccnc1 (centres unmarked)"
operator_symbol = "<"
assay_value = 0.03

[[record]]
compound = "CCC(C)n1ncn(-c2ccc(N3CCN(c4ccc(OCC5COC(Cn6cncn6)(c6ccc(Cl)cc6Cl)O5)cc4)CC3)cc2)c1=O (centres unmarked) [Itraconazole hydrochloride]"
operator_symbol = "="
assay_value = 0.78

[[record]]
compound = "C[C@@H](c1nc(-c2ccc(C#N)cc2)cs1)[C@](O)(Cn1cncn1)c1cc(F)ccc1F"
operator_symbol = "="
assay_value = 0.05

[[record]]
compound = "Clc1ccc(C(Cn2ccnc2)OCc2c(Cl)cccc2Cl)c(Cl)c1 (centres unmarked) [Isoconazole nitrate (Travogen), Isoconazole nitrate]"
operator_symbol = "="
assay_value = 0.36

[[record]]
compound = "Oc1c(I)cc(Cl)c2cccnc12"
operator_symbol = "="
assay_value = 1.7

[[record]]
compound = "CC(C)(C)c1cc(C=C(C#N)C#N)cc(C(C)(C)C)c1O"
operator_symbol = "="
assay_value = 0.78

[[record]]
compound = "N#C/C(=C1/SC[C@@H](c2ccc(Cl)cc2Cl)S1)n1ccnc1"
operator_symbol = "<"
assay_value = 0.03

[[record]]
compound = "C=CCOC(Cn1ccnc1)c1ccc(Cl)cc1Cl (centres unmarked) [Enilconazole sulphate]"
operator_symbol = "="
assay_value = 0.42

[[record]]
compound = "Fc1ccc(C(c2ccccc2)(c2ccccc2F)n2ccnc2)cc1 (centres unmarked)"
operator_symbol = "="
assay_value = 0.42

[[record]]
compound = "C[C@@H](c1nc(-c2ccc(C#N)cc2)cs1)[C@](O)(Cn1cncn1)c1ccc(F)cc1F"
operator_symbol = "<"
assay_value = 0.03

[[record]]
compound = "Clc1ccc(C(Cn2ccnc2)OCc2ccsc2Cl)c(Cl)c1 (centres unmarked)"
operator_symbol = "="
assay_value = 0.33

